# test target: Growth hormone secretagogue receptor type 1 (Homo sapiens, UniProt Q92847)
# Sequence (Q92847 whole entry): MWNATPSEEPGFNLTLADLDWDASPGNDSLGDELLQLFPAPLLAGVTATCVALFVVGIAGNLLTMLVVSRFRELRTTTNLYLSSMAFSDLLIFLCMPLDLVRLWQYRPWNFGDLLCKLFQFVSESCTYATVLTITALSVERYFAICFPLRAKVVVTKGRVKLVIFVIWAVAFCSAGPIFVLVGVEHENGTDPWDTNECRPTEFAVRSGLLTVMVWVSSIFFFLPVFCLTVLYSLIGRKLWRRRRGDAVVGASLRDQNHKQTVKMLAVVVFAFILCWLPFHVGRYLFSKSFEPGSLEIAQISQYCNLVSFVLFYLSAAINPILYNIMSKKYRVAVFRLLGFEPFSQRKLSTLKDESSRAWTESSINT
# method summary: Inhibition of [125I]Ghrelin binding to human Ghrelin receptor expressed in CHO-K1 cells after 60 mins by liquid scintillation spectrometry
# Type: cell-based
recorded endpoint: Ki (nM)

> print(dat)
                                        mol                               test.target  recorded.endpoint  quantitative.result
1  Cc1ccccc1-c1nc2ccc(Oc3ccc(F)cc3)cc2c(=O)n1C[C@H]1CCCN(C)C1  Growth hormone secretagogue receptor type 1 (Homo sapiens, UniProt Q92847)                 Ki                   22

====

# method summary: Lipophilicity, log D of the compound
# Format: physicochemical
# assay context: octanol/water
recorded endpoint: logD

> print(dat)
                                        mol  recorded.endpoint  quantitative.result
1  Cc1ccccc1-c1nc2ccc(Oc3ccc(F)cc3)cc2c(=O)n1C[C@H]1CCCN([11CH3])C1               logD                  4.1
